Provenance of the data: the supplement of paper PMC12350171

Below is a list of entries, each paired with its recorded growth AUC normalised to DMSO control value.
Test system: Haemophilus parainfluenzae
Experiment: growth AUC normalised to DMSO control (fraction of control); higher = less growth inhibition, active = hit call of the paper
Conditions: 20 µM
Counter-ions that a name gives are not always drawn.
The answer should be a number; do not append a unit.

Consider the following illustrative entries.
MOLECULE	growth AUC normalised to DMSO control
CO[C@@]1(NC(=O)Cc2cccs2)C(=O)N2C(C(=O)O)=C(COC(N)=O)CS[C@@H]21 [Cefoxitin sodium salt]	0.0362
CC(=O)N(O)CCCCCNC(=O)CCC(=O)N(O)CCCCCNC(=O)CCC(=O)N(O)CCCCCN [Deferoxamine mesylate]	1.07
CNCC(O)c1ccc(O)c(O)c1 (stereo unspecified) [Racepinephrine hydrochloride]	1.06
CC(COc1ccccc1)NC(C)C(O)c1ccc(O)cc1 (stereo unspecified) [Isoxsuprine hydrochloride]	0.939
N=C(N)NC(=O)c1nc(Cl)c(N)nc1N [Amiloride hydrochloride dihydrate]	1.03
CC1(C)S[C@@H]2[C@H](NC(=O)[C@H](NC(=O)N3CCNC3=O)c3ccccc3)C(=O)N2[C@H]1C(=O)O [Azlocillin sodium salt]	0.0396
COc1ccc2cc([C@@H](C)C(=O)O)ccc2c1 [(R) Naproxen sodium salt]	1.1
Cc1cc(C(=O)NNCc2ccccc2)no1	1.06

What the record says about CC1(C)O[C@@H]2C[C@H]3[C@@H]4C[C@H](F)C5=CC(=O)CC[C@]5(C)[C@H]4[C@@H](O)C[C@]3(C)[C@]2(C(=O)CO)O1 [Flurandrenolide] : growth AUC normalised to DMSO control is 1.03

What the record says about CCN(CC)Cc1cc(Nc2ccnc3cc(Cl)ccc23)ccc1O [Amodiaquine dihydrochloride dihydrate] : growth AUC normalised to DMSO control is 0.992

----------
Test system: Haemophilus parainfluenzae
Assay: growth AUC normalised to DMSO control (fraction of control); higher = less growth inhibition, active = hit call of the paper;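 active = AUC significantly below DMSO controls by Student t-fit with adjusted P under 0.01; inactive = not significantly reduced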
Details: 20 µM
Structures can show the parent of a compound that is named as a salt.
Tick one outcome: yes (active), no (inactive)

COMPOUND	TARGET_UNDER_TEST	CATEGORY_LABEL
CCCN(CCC)S(=O)(=O)c1ccc(C(=O)O)cc1 [Probenecid]	Haemophilus parainfluenzae	no
Cc1cccc(C)c1NC(=O)C1CCCCN1C (stereo not drawn) [Mepivacaine hydrochloride]	Haemophilus parainfluenzae	no

Ask: Check the results log: what was the call for CS(=O)(=O)OCCCCOS(C)(=O)=O [Busulfan] ?
Reply: no

Ask: Check the results log: what was the call for COc1ccc(CC(C)NCC(O)c2ccc(O)c(NC=O)c2)cc1 (stereo not drawn) [Formoterol fumarate] ?
Reply: no

Ask: Check the results log: what was the call for CNC(C)CCC=C(C)C (stereo not drawn) [Isometheptene mucate] ?
Reply: no

Ask: Check the results log: what was the call for CC(=O)OCC(=O)[C@@]1(OC(C)=O)[C@@H](C)C[C@H]2[C@@H]3C[C@H](F)C4=CC(=O)C=C[C@]4(C)[C@@]3(F)[C@@H](O)C[C@@]21C [Diflorasone Diacetate] ?
Reply: no

Ask: Check the results log: what was the call for CCN(CC)CCOC(=O)C(Cc1cccc2ccccc12)CC1CCCO1 (stereo not drawn) [Nafronyl oxalate] ?
Reply: no

Ask: Check the results log: what was the call for CC(Oc1ccccc1)C(=O)N[C@@H]1C(=O)N2[C@@H]1SC(C)(C)[C@@H]2C(=O)O (stereo partly drawn) [Phenethicillin potassium salt] ?
Reply: yes

----------
Tested on: Salmonella enterica typhimurium
Assay: growth AUC normalised to DMSO control (fraction of control); higher = less growth inhibition, active = hit call of the paper
Details: 20 µM
Structures can show the parent of a compound that is named as a salt.
OUTCOME_MEASURE: growth AUC normalised to DMSO control
The answer should be a number; do not append a unit.

COMPOUND	OUTCOME_MEASURE	READOUT_VALUE
C[C@@H]1CN([C@H]2CC[C@](C#N)(c3ccc(F)cc3)CC2)CC[C@]1(C(=O)O)c1ccccc1 [Levocabastine hydrochloride]	growth AUC normalised to DMSO control	1
CCC(=O)O[C@H]1CC[C@H]2[C@@H]3CCC4=CC(=O)CC[C@]4(C)[C@H]3CC[C@]12C [Testosterone propionate]	growth AUC normalised to DMSO control	1.02
CC[C@@H](CO)NC(=O)[C@@H]1C=C2c3cccc4[nH]cc(c34)C[C@H]2N(C)C1 [Methylergometrine maleate]	growth AUC normalised to DMSO control	0.985
CN(C)[C@@H]1C(=O)C(C(N)=O)=C(O)[C@@]2(O)C(=O)C3=C(O)c4c(O)ccc(Cl)c4[C@@](C)(O)[C@H]3C[C@@H]12 [Chlortetracycline hydrochloride]	growth AUC normalised to DMSO control	0.00172
CN1[C@@H]2C[C@@H](OC(=O)[C@H](CO)c3ccccc3)C[C@H]1[C@@H]1O[C@@H]12 [Scopolamine hydrochloride]	growth AUC normalised to DMSO control	1.03

Kindly consider the entry below.
What the record says about CC(C)N(CCC(C(N)=O)(c1ccccc1)c1ccccn1)C(C)C (stereo unspecified) [Disopyramide] : growth AUC normalised to DMSO control is 0.993

----------
System: Salmonella enterica typhimurium
Experiment: growth AUC normalised to DMSO control (fraction of control); higher = less growth inhibition, active = hit call of the paper
Settings: 20 µM
Counter-ions that a name gives are not always drawn.
OUTCOME_MEASURE: growth AUC normalised to DMSO control

COMPOUND	READOUT_VALUE
O=c1[nH]c2ccccc2n1CCCN1CCC(n2c(=O)[nH]c3cc(Cl)ccc32)CC1	1.01 (inactive)
C[C@]12CC[C@H](O)C[C@@H]1CC[C@@H]1[C@@H]2CC[C@]2(C)C(=O)CC[C@@H]12 [Epiandrosterone]	0.987 (inactive)
O=C(NCNC(=O)NC1C(=O)NC(=O)N1CO)NC1C(=O)NC(=O)N1CO (centres undefined)	1 (inactive)
O=P1(N(CCCl)CCCl)NCCCO1 (centres undefined) [Cyclophosphamide]	1.02 (inactive)
CC(C)c1cccc(C(C)C)c1O	1.01 (inactive)
C=CCN1CC[C@]23c4c5ccc(O)c4O[C@H]2C(=O)CC[C@@]3(O)[C@H]1C5 [Naloxone hydrochloride]	0.981 (inactive)
CN1CCN(C(=O)OC2c3nccnc3C(=O)N2c2ccc(Cl)cn2)CC1 (centres undefined)	0.996 (inactive)
NC(=O)CN1CCCC1=O	0.991 (inactive)

What the record says about C[N+]1(C)[C@@H]2CC[C@H]1C[C@@H](OC(=O)C(CO)c1ccccc1)C2 (some centres undefined) [Methylatropine nitrate] : growth AUC normalised to DMSO control is 1.01 (inactive)

----------
Tested on: Yersinia pseudotuberculosis
Experiment: growth AUC normalised to DMSO control (fraction of control); higher = less growth inhibition, active = hit call of the paper;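 active = AUC significantly below DMSO controls by Student t-fit with adjusted P under 0.01; inactive = not significantly reduced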
Details: 20 µM
Counter-ions that a name gives are not always drawn.
Tick one outcome: active, inactive

Completed entries (count: 3):
COMPOUND	CATEGORY_LABEL
CC(=O)OC1CN2CCC1CC2 (configuration not stated) [Aceclidine hydrochloride]	inactive
c1ccc2c(c1)OCC(C1=NCCN1)O2 (configuration not stated) [Idazoxan hydrochloride]	inactive
CNC(C)(C)Cc1ccccc1 [Mephentermine hemisulfate]	inactive

Ask: Check the results log: what was the call for C[N+]1(C)[C@@H]2CC[C@H]1C[C@@H](OC(=O)C(CO)c1ccccc1)C2 (some centres not stated) [Methylatropine nitrate] ?
Reply: inactive

Ask: Check the results log: what was the call for CC(C)(N)Cc1ccccc1 [Phentermine hydrochloride] ?
Reply: inactive

Ask: Check the results log: what was the call for COc1cccc(C2(O)CCCCC2CN(C)C)c1 (configuration not stated) [Tramadol hydrochloride] ?
Reply: inactive

Ask: Check the results log: what was the call for CC(=O)OCC1=C(C(=O)O)N2C(=O)[C@@H](N)[C@H]2SC1 ?
Reply: inactive

----------
Below is a list of entries, each paired with its recorded growth AUC normalised to DMSO control value.
Tested on: Shigella flexneri
Assay: growth AUC normalised to DMSO control (fraction of control); higher = less growth inhibition, active = hit call of the paper
Settings: 20 µM
Where a name gives a salt, the structure may show the parent alone.
The answer should be a number; do not append a unit.

Consider the following illustrative entries.
COMPOUND	growth AUC normalised to DMSO control
CC(NC(C)(C)C)C(=O)c1cccc(Cl)c1 (stereo not drawn) [Bupropion hydrochloride]	1.05
N[C@@H]1C[C@H]1c1ccccc1 [Tranylcypromine hydrochloride]	1

Let me check: CC(N)C(O)c1ccccc1 (stereo not drawn) [Phenylpropanolamine hydrochloride] , system Shigella flexneri, measured growth AUC normalised to DMSO control is 1.03

----------
Below is a list of entries, each paired with its recorded growth AUC normalised to DMSO control value.
System: Haemophilus parainfluenzae
Assay: growth AUC normalised to DMSO control (fraction of control); higher = less growth inhibition, active = hit call of the paper
Details: 20 µM
Where a name gives a salt, the structure may show the parent alone.
The answer should be a number; do not append a unit.

What the record says about CN(C)CCCOc1nn(Cc2ccccc2)c2ccccc12 [Benzydamine hydrochloride] : growth AUC normalised to DMSO control is 0.964

What the record says about CC(C)(Oc1ccc(CCNC(=O)c2ccc(Cl)cc2)cc1)C(=O)O [Bezafibrate] : growth AUC normalised to DMSO control is 0.984

What the record says about CO[C@H]1C[C@H](O[C@H]2[C@H](C)[C@@H](O[C@@H]3O[C@H](C)C[C@H](N(C)C)[C@H]3OC(C)=O)[C@@H](C)C[C@@]3(CO3)C(=O)[C@H](C)[C@@H](OC(C)=O)[C@@H](C)[C@@H](C)OC(=O)[C@@H]2C)O[C@@H](C)[C@@H]1OC(C)=O [Troleandomycin] : growth AUC normalised to DMSO control is 0.921

What the record says about C[C@H](N)[C@H](O)c1ccc(O)c(O)c1 [Levonordefrin] : growth AUC normalised to DMSO control is 1.04

What the record says about CC(C)CC(=O)N[C@H](C(=O)N[C@H](C(=O)N[C@@H](CC(C)C)[C@@H](O)CC(=O)N[C@@H](C)C(=O)N[C@@H](CC(C)C)[C@@H](O)CC(=O)O)C(C)C)C(C)C [Pepstatin A] : growth AUC normalised to DMSO control is 1.07

What the record says about CC(=O)Nc1ccc(O)cc1 [Acetaminophen] : growth AUC normalised to DMSO control is 0.952

What the record says about Nc1ccc(C(=O)O)c(O)c1 [Aminosalicylic acid] : growth AUC normalised to DMSO control is 1.09
